measured_target: TgMAPK1 (Toxoplasma gondii, UniProt S8EUF0)
Construct: full-length, endogenously C-terminally 3×HA-tagged TgMAPK1 (TGGT1_312570), immunoprecipitated from RH strain tachyzoite lysates
Sequence (S8EUF0 whole entry): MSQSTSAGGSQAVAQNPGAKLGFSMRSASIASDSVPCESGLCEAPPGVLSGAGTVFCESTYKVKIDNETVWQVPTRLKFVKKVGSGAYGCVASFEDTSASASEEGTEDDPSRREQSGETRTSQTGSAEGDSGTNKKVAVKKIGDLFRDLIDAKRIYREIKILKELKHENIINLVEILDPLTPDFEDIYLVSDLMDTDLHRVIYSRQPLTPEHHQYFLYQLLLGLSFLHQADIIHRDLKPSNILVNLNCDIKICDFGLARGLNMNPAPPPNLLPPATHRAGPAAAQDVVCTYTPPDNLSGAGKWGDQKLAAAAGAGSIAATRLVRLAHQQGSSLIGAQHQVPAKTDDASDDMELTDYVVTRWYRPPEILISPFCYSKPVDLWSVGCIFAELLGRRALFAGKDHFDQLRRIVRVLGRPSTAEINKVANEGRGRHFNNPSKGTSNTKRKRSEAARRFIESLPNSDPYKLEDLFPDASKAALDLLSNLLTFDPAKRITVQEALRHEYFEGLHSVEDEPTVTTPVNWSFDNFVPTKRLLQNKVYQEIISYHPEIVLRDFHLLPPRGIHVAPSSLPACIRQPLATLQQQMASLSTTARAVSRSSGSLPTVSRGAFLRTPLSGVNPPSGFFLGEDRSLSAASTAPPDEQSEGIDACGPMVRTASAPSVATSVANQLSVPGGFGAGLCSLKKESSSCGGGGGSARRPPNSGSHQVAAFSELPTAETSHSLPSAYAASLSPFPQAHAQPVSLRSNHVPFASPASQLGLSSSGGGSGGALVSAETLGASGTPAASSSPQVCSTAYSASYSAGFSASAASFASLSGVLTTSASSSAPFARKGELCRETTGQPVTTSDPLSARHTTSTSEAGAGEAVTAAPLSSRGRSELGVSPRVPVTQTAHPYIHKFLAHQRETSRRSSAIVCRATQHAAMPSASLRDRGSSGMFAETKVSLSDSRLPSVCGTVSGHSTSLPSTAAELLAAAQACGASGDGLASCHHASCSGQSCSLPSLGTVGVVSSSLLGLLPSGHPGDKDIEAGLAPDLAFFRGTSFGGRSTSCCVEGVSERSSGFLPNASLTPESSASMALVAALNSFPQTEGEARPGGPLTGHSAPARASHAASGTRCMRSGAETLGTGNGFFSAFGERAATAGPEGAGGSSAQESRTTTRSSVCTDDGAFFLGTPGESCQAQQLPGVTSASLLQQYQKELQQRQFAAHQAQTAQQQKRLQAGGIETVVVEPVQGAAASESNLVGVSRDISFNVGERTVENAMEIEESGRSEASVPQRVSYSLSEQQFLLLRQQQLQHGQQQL
assay_name: in vitro autokinase assay (γ[…]-ATP) on anti-HA immunoprecipitated kinase, dose response
pIC50: −log10 of the molar value.

>  <compound>
Cc1cccc(-c2[nH]c(C(C)(C)C)nc2-c2ccc3c(c2)OCO3)n1 [SB505124]

>  <measured_target>
TgMAPK1 (Toxoplasma gondii, UniProt S8EUF0)

>  <pIC50>
6.90

$$$$
